tested on: NCI-H23 lung; experiment: NCI-60 one-dose screen, 48 h (100 = growth as untreated, 0 = no growth, -100 = all killed); settings: 10 µM unless noted
This is part of a sample that, as a whole, favours compounds with a hit. Of some 83,000 tested, about 20% had one in any assay.
measured_metric: growth (%)
Respond with the bare value in %.

Solved cases (4 shown):
molecule=CC1(C)N=C(N)N=C(N)N1c1ccc(CCCCc2ccc(Cl)cc2S(=O)(=O)F)c(Cl)c1 measured_metric=growth test_value=25.6
molecule="CCC1CN1P(=O)(OCCOC)N1CC1CC (stereo not given)" measured_metric=growth test_value=114
molecule="CCC1([N+](=O)[O-])COP(=O)(NCc2cccnc2)OC1 (stereo not given)" measured_metric=growth test_value=115
molecule=CC(C)(O)/C=C/C(=O)[C@](C)(O)[C@H]1[C@H](O)C[C@@]2(C)[C@@H]3CC=C4[C@@H](C=C(O)C(=O)C4(C)C)[C@]3(C)C(=O)C[C@]12C measured_metric=growth test_value=-40.1

[ask] // fetch growth given entry Nc1ccc(N)c2c1Oc1ccccc1O2
[reply] 85.7

[ask] For the molecule O=S(=O)(O)c1ccc(-c2ccc([As](=O)(O)O)cc2)cc1 , give its measured growth value.
[reply] 105

[ask] Determine from records and report growth for N#CC1=C(N)Oc2cc3c(cc2C1c1cccs1)OCO3 (stereo not given)
[reply] 15.2

[ask] Given the molecule COc1ccc(/C=C(/C(=O)N2CCCC2)c2cc(OC)c(OC)c(OC)c2)cc1N , write its reported growth.
[reply] 41.7
